List of IC50 values.
- measurement.target: GIPR (CHO-K1-hGIPR cells) (Homo sapiens)
- Construct: host or cells: CHO-K1
- Sequence (P48546 22-466): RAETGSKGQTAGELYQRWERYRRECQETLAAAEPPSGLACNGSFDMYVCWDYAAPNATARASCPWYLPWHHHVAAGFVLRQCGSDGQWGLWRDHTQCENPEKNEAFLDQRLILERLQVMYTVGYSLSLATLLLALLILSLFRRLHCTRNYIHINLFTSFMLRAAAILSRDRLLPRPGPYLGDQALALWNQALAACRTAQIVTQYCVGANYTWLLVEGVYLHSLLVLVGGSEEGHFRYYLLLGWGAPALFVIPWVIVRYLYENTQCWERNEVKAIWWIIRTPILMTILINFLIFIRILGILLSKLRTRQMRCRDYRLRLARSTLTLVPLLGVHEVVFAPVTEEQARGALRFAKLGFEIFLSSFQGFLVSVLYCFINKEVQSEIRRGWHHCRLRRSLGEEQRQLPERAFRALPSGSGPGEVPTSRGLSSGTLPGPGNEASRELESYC
- assay.overview: FACS binding assay
- condition.info: competition with 20 nM GIP-057, 4° C., 1 hour, read-out: pIC50 Category (converted)
*1 amine or outer side, *2 acyl side, *3 side chain or, on linkers, in order; H or OH if unused. Where a SMILES comes first, the peptide text is derived from it. Bridges are numbered along the chain shown (N, C = ends). [ ]: non-standard residue; d: D form. The star is where a group is joined. X5 = NC(=O)[C@H](CCCCNC(=O)CN1CCN(CC(=O)O)CCN(CC(=O)O)CCN(CC(=O)O)CC1)NC(=O)CCC(=O)NCCCOCCOCCOCCCN*; X11 = O=C(CN1CCN2CCN3CCN(CC1)CC(=O)[O][In]([O]C(=O)C2)[O]C(=O)C3)NCCCOCCOCCOCCCN*; X8 = O=C(O)CN1CCN(CC(=O)O)CCN(CC(=O)N2CCN(*)CC2)CCN(CC(=O)O)CC1; Trp(5-Cl) = N[C@@H](Cc1c[nH]c2ccc(Cl)cc12)C(=O)O; Pyridine(2,6-diCH2) = c1cc(C[*:1])nc(C[*:2])c1; 1Nal = N[C@@H](Cc1cccc2ccccc12)C(=O)O; mXylylene = c1cc(C[*:1])cc(C[*:2])c1; X7 = c1cc(CSCCN[*:2])cc(C[*:1])c1; Hyp = O=C(O)[C@@H]1C[C@@H](O)CN1; Suc = O=C(CCC(=O)[*:2])[*:1]; hCys = N[C@@H](CCS)C(=O)O; Thp = NC1(C(=O)O)CCOCC1; Aib = CC(C)(N)C(=O)O
quantity.name: IC50

molecule	measurement.target	data.value
CC[C@H](C)[C@@H]1NC(=O)[C@H](CC(C)C)NC(=O)C2(CCOCC2)NC(=O)[C@@H](NC(=O)[C@@H](CC(C)C)NC(=O)[C@H](CCC(=O)O)NC(=O)[C@@H]2C[C@@H](O)CN2C(=O)[C@H](Cc2c[nH]c3ccc(Cl)cc23)NC(=O)[C@H](Cc2c[nH]c3ccccc23)NC(=O)[C@H](CC(=O)O)NC(C)=O)CCSCc2cccc(n2)CSCC[C@@H](C(N)=O)NC1=O [GIP-202] (Ac-DW[Trp(5-Cl)][Hyp]E[dL][hCys][Thp]LI[hCys]-NH2; linker 7-11 via Pyridine(2,6-diCH2))	GIPR (CHO-K1-hGIPR cells) (Homo sapiens)	< 10 nM
CC[C@H](C)[C@@H]1NC(=O)[C@H](CC(C)C)NC(=O)C(C)(C)NC(=O)[C@@H](NC(=O)[C@@H](CC(C)C)NC(=O)[C@H](CCC(=O)O)NC(=O)[C@@H]2CCCN2C(=O)[C@H](Cc2c[nH]c3ccc(Cl)cc23)NC(=O)[C@H](Cc2c[nH]c3ccccc23)NC(=O)[C@H](CC(=O)O)NC(=O)CCC(=O)NCCCOCCOCCOCCCNC(=O)CN2CCN3CCN4CCN(CC2)CC(=O)[O][In]([O]C(=O)C3)[O]C(=O)C4)CSCc2cccc(c2)CSCCNC1=O [GIP-148] ({X11-Suc}-DW[Trp(5-Cl)]PE[dL]C[Aib]LI; linker 7-C via X7)	GIPR (CHO-K1-hGIPR cells) (Homo sapiens)	< 10 nM
CC(=O)N[C@@H](CC(=O)O)C(=O)N[C@@H](Cc1c[nH]c2ccccc12)C(=O)N[C@@H](Cc1cccc2ccccc12)C(=O)N1CCC[C@H]1C(=O)N[C@@H](CCC(=O)O)C(=O)N[C@H](CC(C)C)C(=O)N[C@H]1CSCc2cccc(c2)CSC[C@@H](C(=O)NCCCOCCOCCOCCCNC(=O)CCC(=O)N[C@@H](CCCCNC(=O)CN2CCN(CC(=O)O)CCN(CC(=O)O)CCN(CC(=O)O)CC2)C(N)=O)NC(=O)[C@H](C(C)C)NC(=O)[C@H](CC(C)C)NC(=O)[C@H](C)NC1=O [GIP-138] (Ac-DW[1Nal]PE[dL]CALVC-X5; linker 7-11 via mXylylene)	GIPR (CHO-K1-hGIPR cells) (Homo sapiens)	10 to 79.4 nM
CC[C@H](C)[C@@H]1NC(=O)[C@H](CC(C)C)NC(=O)C2(CCOCC2)NC(=O)[C@@H](NC(=O)[C@@H](CC(C)C)NC(=O)[C@H](CCC(=O)O)NC(=O)[C@@H]2C[C@@H](O)CN2C(=O)[C@H](Cc2c[nH]c3ccc(Cl)cc23)NC(=O)[C@H](Cc2c[nH]c3ccccc23)NC(=O)CCC(=O)O)CSCc2cccc(n2)CSC[C@@H](C(=O)N2CCN(C(=O)CN3CCN(CC(=O)O)CCN(CC(=O)O)CCN(CC(=O)O)CC3)CC2)NC1=O [GIP-118] (Suc-W[Trp(5-Cl)][Hyp]E[dL]C[Thp]LIC-X8; linker 6-10 via Pyridine(2,6-diCH2))	GIPR (CHO-K1-hGIPR cells) (Homo sapiens)	< 10 nM

From: patent US20250296971A1
